ASSAY_TARGET: GPR73 (prokineticin 1 receptor) (Homo sapiens, UniProt Q8TCW9)
Construct: expressed in transfected cells; host or cells: HEK 293
Sequence (Q8TCW9 whole entry, species assumed): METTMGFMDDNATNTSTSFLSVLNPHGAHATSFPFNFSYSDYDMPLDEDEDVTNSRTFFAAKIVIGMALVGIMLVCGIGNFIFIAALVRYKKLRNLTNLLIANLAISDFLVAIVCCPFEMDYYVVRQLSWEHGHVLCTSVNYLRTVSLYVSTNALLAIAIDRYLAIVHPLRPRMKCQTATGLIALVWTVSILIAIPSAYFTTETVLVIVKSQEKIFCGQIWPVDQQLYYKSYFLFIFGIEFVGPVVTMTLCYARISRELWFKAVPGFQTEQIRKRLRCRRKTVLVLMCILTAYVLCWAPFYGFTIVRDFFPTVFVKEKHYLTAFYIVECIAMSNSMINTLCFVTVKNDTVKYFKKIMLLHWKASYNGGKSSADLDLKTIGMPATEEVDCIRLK
PROTOCOL_NOTES: PK1 functional assay: Ca2+ mobilization on the FLIPR
Format: cell-based
PROTOCOL_CONDITIONS: 10 µM; read-out: Ca^2+ Mobilization % Inh @10 µM
READOUT_NAME: inhibition at 10 µM (%)
Your answer should be a plain number; it is taken to be in %.

For the record `Nc1nc2ccc(F)c(F)c2n1CCNc1nc(=O)n(Cc2ccc(F)cc2)c(=O)n1Cc1ccc(OC(F)(F)F)cc1` , what value of inhibition at 10 µM is listed for GPR73 (prokineticin 1 receptor) (Homo sapiens, UniProt Q8TCW9)?
72

Param readout = inhibition at 10 µM; param system = GPR73 (prokineticin 1 receptor) (Homo sapiens, UniProt Q8TCW9); param query = `Nc1nc2cc(F)ccc2n1CCNc1nc(=O)n(Cc2ccc(F)cc2)c(=O)n1Cc1ccc(OC(F)(F)F)cc1` ; response: value
87

Find inhibition at 10 µM (GPR73 (prokineticin 1 receptor) (Homo sapiens, UniProt Q8TCW9)) for the entry `NC1=Nc2ccc(Cl)cc2CN1CCNc1nc(=O)n(Cc2ccc(F)cc2)c(=O)n1Cc1ccc(OC(F)F)cc1`
101

inhibition at 10 µM of `Nc1ncc(CCNc2nc(=O)n(Cc3ccc4c(c3)CCO4)c(=O)n2Cc2ccc3c(c2)CCO3)[nH]1` on GPR73 (prokineticin 1 receptor) (Homo sapiens, UniProt Q8TCW9)?
69

Form field - read-out: inhibition at 10 µM; system: GPR73 (prokineticin 1 receptor) (Homo sapiens, UniProt Q8TCW9); submitted item: `Nc1ncc(CCNc2nc(=O)n(Cc3ccc(F)cc3)c(=O)n2Cc2ccc(OC(F)F)cc2)[nH]1`
93

Given the entry `COc1cccc2c1nc(N)n2CCNc1nc(=O)n(Cc2ccc(F)cc2)c(=O)n1Cc1ccc(OC(F)F)cc1` , what inhibition at 10 µM was observed with GPR73 (prokineticin 1 receptor) (Homo sapiens, UniProt Q8TCW9)?
91

Any idea what inhibition at 10 µM came out for `COc1ccc2c(c1)N=C(N)N(CCNc1nc(=O)n(Cc3ccc(F)cc3)c(=O)n1Cc1ccc(OC(F)F)cc1)C2` on GPR73 (prokineticin 1 receptor) (Homo sapiens, UniProt Q8TCW9)?
95

Param readout= inhibition at 10 µM; system= GPR73 (prokineticin 1 receptor) (Homo sapiens, UniProt Q8TCW9); entry= `NC1=Nc2cc(Cl)ccc2CN1CCNc1nc(=O)n(Cc2ccc(F)cc2)c(=O)n1Cc1ccc(OC(F)F)cc1` ; returns value.
103

Lookup: inhibition at 10 µM / GPR73 (prokineticin 1 receptor) (Homo sapiens, UniProt Q8TCW9) / `Nc1nc2cccc(F)c2n1CCNc1nc(=O)n(Cc2ccc(F)cc2)c(=O)n1Cc1ccc(OC(F)(F)F)cc1`
91

What inhibition at 10 µM appears in the records for this molecule with GPR73 (prokineticin 1 receptor) (Homo sapiens, UniProt Q8TCW9)? `Nc1nc2ccc(Cl)cc2n1CCNc1nc(=O)n(Cc2ccc(F)cc2)c(=O)n1Cc1ccc(OC(F)F)cc1`
86

Query for GPR73 (prokineticin 1 receptor) (Homo sapiens, UniProt Q8TCW9): what inhibition at 10 µM does the record show for `NC1=Nc2ccc(F)cc2CN1CCNc1nc(=O)n(Cc2ccc(F)cc2)c(=O)n1Cc1ccc(OC(F)(F)F)cc1` ?
99

# value lookup — system GPR73 (prokineticin 1 receptor) (Homo sapiens, UniProt Q8TCW9), readout inhibition at 10 µM, item `CCc1ccc(Cn2c(=O)nc(NCCc3cnc(N)[nH]3)n(Cc3ccc4c(c3)CCO4)c2=O)cc1`
35

So what inhibition at 10 µM did `CCc1ccc(Cn2c(=O)nc(NCCc3cnc(N)[nH]3)n(Cc3ccc(OC(F)F)cc3)c2=O)cc1` get with GPR73 (prokineticin 1 receptor) (Homo sapiens, UniProt Q8TCW9)?
90

Enter reported inhibition at 10 µM observed with GPR73 (prokineticin 1 receptor) (Homo sapiens, UniProt Q8TCW9) for `Nc1nc2ccc(F)cc2n1CCNc1nc(=O)n(Cc2ccc(F)cc2)c(=O)n1Cc1ccc(OC(F)(F)F)cc1`
93

Request: inhibition at 10 µM, test system GPR73 (prokineticin 1 receptor) (Homo sapiens, UniProt Q8TCW9), entry `NC1=Nc2ccc(Cl)cc2CN1CCNc1nc(=O)n(Cc2ccc(F)cc2)c(=O)n1Cc1ccc(OC(F)(F)F)cc1`
103

Look up inhibition at 10 µM with GPR73 (prokineticin 1 receptor) (Homo sapiens, UniProt Q8TCW9) for this molecule: `COc1ccc(Cn2c(NCCn3c(N)nc4cc(C(F)(F)F)ccc43)nc(=O)n(Cc3ccc(F)cc3)c2=O)cc1`
95

Reported inhibition at 10 µM for GPR73 (prokineticin 1 receptor) (Homo sapiens, UniProt Q8TCW9), given `COc1ccc(Cn2c(NCc3c[nH]c(N)n3)nc(=O)n(Cc3ccc(F)cc3)c2=O)cc1` ?
91

Recall the recorded inhibition at 10 µM for `COc1ccc(Cn2c(NCCn3c(N)nc4cc(F)ccc43)nc(=O)n(Cc3ccc(F)cc3)c2=O)cc1` with GPR73 (prokineticin 1 receptor) (Homo sapiens, UniProt Q8TCW9) and state it.
102

API: value(readout=inhibition at 10 µM, system=GPR73 (prokineticin 1 receptor) (Homo sapiens, UniProt Q8TCW9)) for record `CSc1ccc(Cn2c(=O)nc(NCCn3c(N)nc4ccccc43)n(Cc3ccc4c(c3)CCO4)c2=O)cc1`
102

Param readout = inhibition at 10 µM; param system = GPR73 (prokineticin 1 receptor) (Homo sapiens, UniProt Q8TCW9); param query = `CSc1ccc(Cn2c(=O)nc(NCCn3c(N)nc4ccccc43)n(Cc3ccc(OC(F)F)cc3)c2=O)cc1` ; response: value
99

What measured inhibition at 10 µM is associated with `CCc1ccc(Cn2c(=O)nc(NCCn3c(N)nc4ccccc43)n(Cc3ccc4c(c3)CCO4)c2=O)cc1` on GPR73 (prokineticin 1 receptor) (Homo sapiens, UniProt Q8TCW9)?
83

State its inhibition at 10 µM on GPR73 (prokineticin 1 receptor) (Homo sapiens, UniProt Q8TCW9): `Nc1nccn1CCNc1nc(=O)n(Cc2ccc(F)cc2)c(=O)n1Cc1ccc(OC(F)F)cc1`
100
